- System: CHRF288-11
- Design: species or system AML cell lines (8); Primary HTS, single concentration about 10 uM, Cell Titer Glo viability; log10 luminescence, per cent inhibition relative to cycloheximide control
- Experimental Parameters: 72 h, relative to cycloheximide control, log10 luminescence; inhibitor
Counter-ions that a name gives are not always drawn.
Experimental Endpoint: CHRF288-11 %inh (%)
Please reply with the bare figure in % and do not write the unit itself.

Worked cases, answers included:
Field CHRF288-11 %inh (system: CHRF288-11) for entry CCCCCCCCCCCCCCCCCCCCCCO [SJ000565168-1, 1-DOCOSANOL (BEHENYL ALCOHOL)] = 5.263

Tested on CHRF288-11: CCn1c(=O)c(Oc2ccc(F)cc2F)cc2cnc(NC3CCOCC3)nc21 [SJ000581151-1] . Observed CHRF288-11 %inh: -1.135

Result for c1ccc(Nc2ncc(-c3ccccc3)o2)cc1 [SJ000573072-1, U13103/99/1] , tested on CHRF288-11, CHRF288-11 %inh: 2.769

The reported CHRF288-11 CHRF288-11 %inh of CNC(=O)c1cccc(C#Cc2cncnc2Nc2ccc(OCc3cccc(F)c3)c(Cl)c2)c1 [SJ000573135-1, U17545/42/1] is -0.4909

More entries:
Case CCC(=O)O[C@]1(C(=O)CCl)[C@@H](C)C[C@H]2[C@@H]3C[C@H](F)C4=CC(=O)C=C[C@]4(C)[C@@]3(F)[C@@H](O)C[C@@]21C [SJ000574311-1, HALOBETASOL PROPIONATE] , CHRF288-11, CHRF288-11 %inh recorded as 2.781

Tested system CHRF288-11; CHRF288-11 %inh recorded for COc1cc2c(cc1OC)C(=O)C(CC1CCN(Cc3ccccc3)CC1)C2 (centres unmarked) [SJ000555704-1, DONEPEZIL HYDROCHLORIDE] was 3.237

Entry C[C@@H]1C[C@H]2[C@@H]3C[C@H](F)C4=CC(=O)C=C[C@]4(C)[C@@]3(F)[C@@H](O)C[C@]2(C)[C@@]1(OC(=O)c1ccco1)C(=O)SCF [SJ000556747-1, FLUTICASONE FUROATE] , tested on CHRF288-11, has a reported CHRF288-11 %inh of 5.244

CCCCc1ncc(/C=C(\Cc2cccs2)C(=O)O)n1Cc1ccc(C(=O)O)cc1 [SJ000556755-1, EPROSARTAN MESYLATE] tested on CHRF288-11 gave CHRF288-11 %inh: 1.693

CHRF288-11 %inh value, target or system CHRF288-11, for Cc1cc(-c2ccccn2)cc(C)c1/C=C/c1cncc(-c2nn[nH]n2)c1 [SJ000573354-1, U12068/128/1] : -4.309

Tested system CHRF288-11; CHRF288-11 %inh recorded for CCCCNC(=O)[C@@H]1Cc2ccccc2N1C(=O)[C@@H](N)CC [SJ000772394-1, BUTABINDIDE OXALATE] was -4.064

Item Cn1c(=O)c(Oc2ccc(F)cc2F)cc2cnc(NCCS(C)(=O)=O)nc21 [SJ000580964-1] was tested on CHRF288-11; the reported CHRF288-11 %inh is -0.5727

The values you see were collected from paper PMC6522510.
